# target_desc: NADPH oxidase 4 (Homo sapiens) (UniProt Q9NPH5)
# Sequence (Q9NPH5 whole entry, looked up): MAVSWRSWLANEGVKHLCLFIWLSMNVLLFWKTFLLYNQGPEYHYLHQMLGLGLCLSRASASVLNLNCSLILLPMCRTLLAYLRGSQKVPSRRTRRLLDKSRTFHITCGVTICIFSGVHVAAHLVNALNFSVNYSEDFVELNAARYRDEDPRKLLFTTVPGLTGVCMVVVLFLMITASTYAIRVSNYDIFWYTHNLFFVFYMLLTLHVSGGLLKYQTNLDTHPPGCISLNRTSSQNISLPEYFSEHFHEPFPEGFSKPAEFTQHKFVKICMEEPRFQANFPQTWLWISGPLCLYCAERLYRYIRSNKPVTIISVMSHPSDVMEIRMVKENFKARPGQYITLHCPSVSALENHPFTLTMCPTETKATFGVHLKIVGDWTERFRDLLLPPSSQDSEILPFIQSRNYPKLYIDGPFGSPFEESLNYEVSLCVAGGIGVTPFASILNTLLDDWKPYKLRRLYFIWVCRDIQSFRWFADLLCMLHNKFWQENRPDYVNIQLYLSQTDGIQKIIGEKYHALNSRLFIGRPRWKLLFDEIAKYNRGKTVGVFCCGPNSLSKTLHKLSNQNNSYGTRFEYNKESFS
# protocol_summary: compounds shifting NOX4 Amplex Red fluorescence – cell-based, HEK293-NOX4, tetracycline-induced, NOX inhibitor project, primary screen (AID 1160)
# protocol_conditions: HEK293-NOX4, Amplex Red H2O2 fluorescence, 45 min; higher = more signal, called active from +8 up or from −8 down
Activity calls are given as the source filed them.
Here, each record is paired with measured z-score data.

Worked cases, z-score given:
[
  {
    "molecule": "C=CCNC(=O)[C@@H]1[C@H]2C(=O)O[C@H](c3ccccc3)[C@H](c3ccccc3)N2[C@H](c2ccccc2OCCO)[C@@]12C(=O)Nc1ccc(C#CCCO)cc12",
    "z-score": "0.627 (inactive)"
  },
  {
    "molecule": "CCOC(=O)C[C@H]1[C@H](OC(=O)Cc2ccc3c(c2)OCO3)[C@@H](NC(=O)C2CCCCC2)c2cc(OCCCO)ccc2N1C(=O)c1ccccc1",
    "z-score": "0.636 (inactive)"
  },
  {
    "molecule": "CC(CO)N1C(=O)[C@@H]2[C@H]3C(=O)OCC=C[C@H]3OC23C=CCN(Cn2nnc4ccccc42)C(=O)[C@@H]13 (some centres not stated)",
    "z-score": "0.672 (inactive)"
  },
  {
    "molecule": "CC(C)N1C(=O)c2ccccc2[C@@H](C(=O)NCCN2CCOCC2)[C@@H]1c1ccc(CO)cc1",
    "z-score": "0.675 (inactive)"
  },
  {
    "molecule": "CCCCCCCCCCC(O)C1C=CC2C(=O)N(c3ccccc3)C(=O)C2N1Nc1ccc(C#N)cc1 (configuration not stated)",
    "z-score": "0.0477 (inactive)"
  }
]

Request: Identify z-score associated with the molecule CC1CC/C=C\[C@H]2OC34C=CCN(c5ccc(Cl)cc5)C(=O)[C@H]3N(C(C)CO)C(=O)[C@]4(C)C2C(=O)O1 (some centres not stated)
Response: -0.383 (inactive)

Request: Identify z-score associated with the molecule CCCC[C@@H](O)C1=C(COc2ccccc2)C[C@H]2C(=O)N(Cc3ccccc3)C(=O)[C@H]2[C@H]1CO
Response: -0.286 (inactive)

----------
Here, each record is paired with measured composite z-score data.
# Tested on: Sam68 (KHDRBS1)
# protocol_summary: compounds binding KHDRBS1 protein – biochemical, small-molecule microarray, 635 nm fluorescence, primary screen (AID 1125);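 also: score merges 667 nm channel intensity with signal to noise over triplicate slides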
# protocol_conditions: higher = more signal

[
  {
    "compound": "[N-]=[N+]=Nc1ccccc1[C@@H]1OC(c2ccc(OCCCO)cc2)=N[C@]1(Cc1ccccc1)C(=O)O",
    "composite z-score": 1.3
  },
  {
    "compound": "CC(C)(C)OC(=O)CC[C@@]1(C(=O)NCC(O)CO)N=C(c2ccc(OCCCO)cc2)O[C@@H]1c1ccccc1CN=[N+]=[N-] (stereo partly drawn)",
    "composite z-score": 0.941
  }
]

Request: Check Sam68 (KHDRBS1) data and give composite z-score for COCCOC(=O)N1C(=O)[C@@]2(c3cc(C#CC4=CCCCC4)ccc31)[C@H](C(=O)Nc1nc3ccccc3s1)[C@H]1C(=O)O[C@H](c3ccccc3)[C@H](c3ccccc3)N1[C@@H]2c1ccc(O)cc1 .
Response: 1.31

----------
# protocol_summary: optical density shifts of acrAB sulA E. coli – strain DRC41, OD650, 48 h, E. coli filamentation inducer project, primary screen (AID 1152);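 also: E. coli MC1000 strain DRC41 lacking acrAB efflux pump and sulA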
# protocol_conditions: higher = more signal, called active from +8 up or from −8 down
parameter_measured: z-score
Please reply with the number alone, leaving off any unit.

Worked cases, z-score given:
[
  {
    "compound": "CCCC[C@@H]1C[C@H]1[C@@H](NC(=O)c1cccs1)c1ccccc1C(F)(F)F",
    "parameter_measured": "z-score",
    "readout_number": -1.04
  },
  {
    "compound": "COCCOC(=O)N1C(=O)[C@@]2(c3cc(C#CCNC(N)=O)ccc31)[C@H](C(N)=O)[C@H]1C(=O)O[C@H](c3ccccc3)[C@H](c3ccccc3)N1[C@@H]2c1ccccc1OCCO",
    "parameter_measured": "z-score",
    "readout_number": -0.77
  },
  {
    "compound": "C[N+](C)(C)CCCC[C@@H]1NC(=O)[C@@H]2C[C@H](C(=O)NCCCCCCN)[C@H](c3cccc(OCCO)c3)N2C1=O",
    "parameter_measured": "z-score",
    "readout_number": 0.0598
  }
]

Request: Identify z-score associated with the compound CCOC(=O)C1=C[C@@H](c2ccccc2)N(S(=O)(=O)c2ccc(C)cc2)[C@H]1c1ccc(OC)cc1
Response: -1.11

Request: Identify z-score associated with the compound C[C@@H]1NC(=O)[C@@H](Cc2ccccc2)NC(=O)[C@@]23C(=O)N[C@@H](Cc4ccccc4)C2[C@H](C)[C@@]2(C)O[C@H]2C3/C=C/C/C=C\CNC1=O (stereo partly specified)
Response: -1.02

Request: Identify z-score associated with the compound COCCOC(=O)N1C(=O)[C@@]2(c3cc(C#CC4(O)CCCCCC4)ccc31)[C@H](c1ccc(O)cc1)N1[C@H](c3ccccc3)[C@H](c3ccccc3)OC(=O)[C@H]1[C@@H]2C(=O)N1CCN(c2ncccn2)CC1
Response: -0.533

Request: Identify z-score associated with the compound CCCN1C(=O)[C@@]2(Cc3ccccc31)N=C(c1ccc(OCCCO)cc1)O[C@H]2c1ccccc1
Response: -0.621

Request: Identify z-score associated with the compound C=C(COC)/C(=C/C[C@H](OC(=O)c1ccncc1)c1ccccc1OCCO)c1cc(C(=O)OC)ccc1OC
Response: -0.604

Request: Identify z-score associated with the compound CN1C(=O)C2C=CC(C(O)c3cccn3C)N(Nc3ccc([N+](=O)[O-])cc3[N+](=O)[O-])C2C1=O (stereo unspecified)
Response: -0.824
